- test.system: T1, His-tagged P3028 (human, also: His tag, length and end not given here)
- T1 construct: in solution at 0.5 ug/mL, detected with mouse anti-His antibody and rabbit anti-mouse peroxidase (rampo); also called PGE73; His-tag-P3028; not shown: His tag
- T1 peptide: VFDEFKPLVEEPQNLIK
- test.method.notes: PEPSCAN ELISA, peptide on chip;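 further: binding detected by peroxidase ELISA with ABTS, OD405 colour imaged by CCD camera before and after staining, raw OD405 reported as rampo units, air-bubble wells scored 0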
Ends that are not written are not given here.
Could you please report measured RAMPO Score for the items listed next?
The answer is to be given in rampo units; state only the numeric part.

Give a short answer stating reported RAMPO Score for KKIDTFFVKLSLFTER [SEQ ID NO 289] .
454

Give a short answer stating reported RAMPO Score for KKLDTFFVKLSLFTEK [SEQ ID NO 389] .
291

Give a short answer stating reported RAMPO Score for KKLDTFFVKLSAFTER [SEQ ID NO 350] .
462

Give a short answer stating reported RAMPO Score for KKLDTFFVKISLFTER [SEQ ID NO 335] .
415

Give a short answer stating reported RAMPO Score for MKLDTFFVKLSLFTER [SEQ ID NO 275] .
457

Give a short answer stating reported RAMPO Score for KKLDTFFVKPSLFTER [SEQ ID NO 338] .
436

Give a short answer stating reported RAMPO Score for KKADTFFVKLSLFTER [SEQ ID NO 282] .
427

Give a short answer stating reported RAMPO Score for KKLDTFFVKLSLFPER [SEQ ID NO 383] .
551

Give a short answer stating reported RAMPO Score for KKLDTFFVKLSLGTER [SEQ ID NO 363] .
531

Give a short answer stating reported RAMPO Score for KKLDNFFVKLSLFTER [SEQ ID NO 306] .
436

Give a short answer stating reported RAMPO Score for KKLDTFFVKLSLHTER [SEQ ID NO 364] .
1050

Give a short answer stating reported RAMPO Score for KKKDTFFVKLSLFTER [SEQ ID NO 290] .
386

Give a short answer stating reported RAMPO Score for KKLDTFSVKLSLFTER [SEQ ID NO 323] .
700

Give a short answer stating reported RAMPO Score for KKLDTFFVKLSWFTER [SEQ ID NO 360] .
409

Give a short answer stating reported RAMPO Score for KKLDTFLVKLSLFTER [SEQ ID NO 320] .
517
